# target-desc: ADAM-17 (Homo sapiens)
# Sequence (P78536 215-824): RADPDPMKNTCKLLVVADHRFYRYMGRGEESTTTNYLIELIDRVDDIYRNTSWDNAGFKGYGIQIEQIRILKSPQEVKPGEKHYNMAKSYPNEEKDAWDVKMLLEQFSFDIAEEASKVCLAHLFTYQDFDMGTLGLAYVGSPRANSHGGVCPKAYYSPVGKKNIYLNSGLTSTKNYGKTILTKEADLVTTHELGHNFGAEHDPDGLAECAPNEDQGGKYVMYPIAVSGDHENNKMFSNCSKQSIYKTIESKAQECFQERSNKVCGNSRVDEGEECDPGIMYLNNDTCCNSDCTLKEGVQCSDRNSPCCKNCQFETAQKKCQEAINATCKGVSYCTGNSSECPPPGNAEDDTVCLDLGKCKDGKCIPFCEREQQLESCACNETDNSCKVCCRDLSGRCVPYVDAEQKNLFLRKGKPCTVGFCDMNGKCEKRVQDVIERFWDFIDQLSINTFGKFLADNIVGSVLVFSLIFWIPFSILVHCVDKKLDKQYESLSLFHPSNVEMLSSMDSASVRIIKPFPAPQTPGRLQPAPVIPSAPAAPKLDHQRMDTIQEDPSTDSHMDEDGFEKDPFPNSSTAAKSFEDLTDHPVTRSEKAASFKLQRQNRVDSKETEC
# test-method-notes: Inhibition of enzymes: ADAM-17 inhibition
# Type: biochemical
# cond: ADAM-17 at level of 400 ng/ml
Bridge positions count the residues as written; N and C are the ends. Ends that are not written are not given here. I, II: the chains in the order shown.
endpoint: ADAM-17 Inhibition (observed)

// solved cases for ADAM-17 Inhibition (observed) follow
substance: HVLVVAAAFVHFYGVSNLQEFRYGLEGGCT [R1 CTF30]
ADAM-17 Inhibition (observed): Negative
//
substance: VVAAAFVHFYGVSNLQEFRYGLEGGCTDDTLL [R1 CTF32, C-terminal fragment of ADIPOR1, 32 amino acids]
ADAM-17 Inhibition (observed): Positive
//
substance: GGCTDDTLL [R1 CTF9]
ADAM-17 Inhibition (observed): Negative
//
substance: HFHGVSNLQEFRFMIGGGCSEEDAL [R2 CTF25]
ADAM-17 Inhibition (observed): Negative

Sample VVAGAFVHFHGVSNLQEFRFMIGGGCSEEDAL [R2 CTF32, C-terminal fragment of ADIPOR2, 32 amino acids] — what was its ADAM-17 Inhibition (observed)?
Positive

Please look up its ADAM-17 Inhibition (observed): LQEFRYGLEGGCTDDTLL [R1 CTF17]
Negative

Entry HFYGVSNLQEFRYGLEGGCTDDTLL [R1 CTF25] has what ADAM-17 Inhibition (observed)?
Negative

# get_value(readout='ADAM-17 Inhibition (observed)', item= GGCSEEDAL [R2 CTF9] )
Negative

Which ADAM-17 Inhibition (observed) value is on record for R1 CTF25 R2 CTF25: SEQ ID NO:5 linked via a disulfide bond to SEQ ID NO:6 (chain 1 HFYGVSNLQEFRYGLEGGCTDDTLL; chain 2 HFHGVSNLQEFRFMIGGGCSEEDAL; disulfide I:19-II:19 (inferred)) ?
Negative

====

# target-desc: insulin degradation enzyme (IDE) (Homo sapiens)
# test-method-notes: Inhibition of enzymes: insulin degradation enzyme (IDE) inhibition
# Assay type: biochemical
# cond: IDE at level of 400 ng/ml; peptide level giving 90% inhibition

query-sequence: GGCSEEDAL [R2 CTF9]
IDE Inhibition (90% inhibition at): Negative
//
query-sequence: GGCTDDTLL [R1 CTF9]
IDE Inhibition (90% inhibition at): negative
//
query-sequence: HVLVVAAAFVHFYGVSNLQEFRYGLEGGCT [R1 CTF30]
IDE Inhibition (90% inhibition at): Negative
//
query-sequence: LQEFRYGLEGGCTDDTLL [R1 CTF17]
IDE Inhibition (90% inhibition at): negative
